test system: Cocklebur; assay: pre-emergence herbicide test; assay type: in vivo; conditions: Xanthium strumarium, pre-emergence, 0.1785 lb/A; read-out: % plant inhibition
endpointLabel: inhibition at 200.072 g/ha (%)
Give the quantity in %, number only.

Consider the worked cases shown below.
{"columns": ["smilesString", "inhibition at 200.072 g/ha [%]"],
 "data": [
  ["COc1cc(-c2nn(C)c(C(F)(F)F)c2C)c(F)cc1Cl", 80],
  ["Cc1c(-c2cc(OCC(=O)OC(C)C)c(Cl)cc2F)nn(C)c1C(F)(F)F", 85],
  ["COc1cc(-c2nn(C)c(C(F)(F)F)c2C)c(F)cc1[N+](=O)[O-]", 0],
  ["C#CCOc1cc(-c2nn(C)c(C(F)(F)F)c2C)c(F)cc1Cl", 95],
  ["Cn1nc(-c2cc(F)ccc2F)c(C=O)c1C(F)(F)F", 0]
]}

Please find the next compound below.
Task item: # query: inhibition at 200.072 g/ha of entry Cc1c(-c2cc(O)c(Cl)cc2F)nn(C)c1C(F)(F)F
Reply: 0

---

system: Common Chickweed; assay: post-emergence herbicide test; type: in vivo; conditions: post-emergence, 0.0071 lb/A; read-out: % plant inhibition
Below is a list of entries, each paired with its recorded inhibition at 7.95803 g/ha value.
Give the quantity in %, number only.

Consider the worked cases shown below.
{"columns": ["smilesString", "targetDesc", "endpointLabel", "numericReadout"],
 "data": [
  ["Cc1c(-c2cc(OCC(=O)OC(C)C)c(Cl)cc2F)nn(C)c1C(F)(F)F", "Common Chickweed", "inhibition at 7.95803 g/ha", 65],
  ["COc1cc(-c2nn(C)c(C(F)(F)F)c2C)c(F)cc1Cl", "Common Chickweed", "inhibition at 7.95803 g/ha", 0],
  ["C#CCOc1cc(-c2nn(C)c(C(F)(F)F)c2C)c(F)cc1Cl", "Common Chickweed", "inhibition at 7.95803 g/ha", 0],
  ["COc1cc(-c2nn(C)c(C(F)(F)F)c2C)c(F)cc1[N+](=O)[O-]", "Common Chickweed", "inhibition at 7.95803 g/ha", 85]
]}

Please find the next molecule below.
Task item: # query: inhibition at 7.95803 g/ha of entry Cc1c(-c2cc(F)c([N+](=O)[O-])cc2F)nn(C)c1C(F)(F)F
Reply: 0

---

Below is a list of entries, each paired with its recorded inhibition at 280.212 g/ha value.
system: Downy Brome; assay: pre-emergence herbicide test; format: in vivo; conditions: Bromus tectorum, pre-emergence, 0.25 lb/A; read-out: % plant inhibition
Give the quantity in %, number only.

Consider the worked cases shown below.
{"columns": ["compound", "inhibition at 280.212 g/ha / %"],
 "data": [
  ["CC(=O)CCCOC(=O)c1cc(-c2nn(C)c(C(F)(F)F)c2C)c(F)cc1Cl", 15],
  ["Cc1c(-c2cc(CSC(C)C)c(Cl)cc2F)nn(C)c1C(F)(F)F", 10],
  ["CC(C)OC(=O)c1cc(-c2nn(C)c(C(F)(F)F)c2CF)c(F)cc1Cl", 100]
]}

Task item: # query: inhibition at 280.212 g/ha of entry C=CCOC(=O)c1cc(-c2nn(C)c(C(F)(F)F)c2C)c(F)cc1Cl
Reply: 75

Task item: # query: inhibition at 280.212 g/ha of entry COCC(C)OC(=O)c1cc(-c2nn(C)c(C(F)(F)F)c2C)c(F)cc1Cl (stereo not drawn)
Reply: 100

Task item: # query: inhibition at 280.212 g/ha of entry CCOC(=O)c1cc(-c2nn(C)c(C(F)(F)F)c2C)c(F)cc1Cl
Reply: 55

Task item: # query: inhibition at 280.212 g/ha of entry CC(C)OC(=O)c1cc(-c2nn(C)c(C(F)(F)F)c2C(F)F)c(F)cc1Cl
Reply: 100

Task item: # query: inhibition at 280.212 g/ha of entry Cc1c(-c2cc(CBr)c(Cl)cc2F)nn(C)c1C(F)(F)F
Reply: 25

Task item: # query: inhibition at 280.212 g/ha of entry CSCc1cc(-c2nn(C)c(C(F)(F)F)c2C)c(F)cc1Cl
Reply: 5

Task item: # query: inhibition at 280.212 g/ha of entry CCOC(=O)C(C)OC(=O)c1cc(-c2nn(C)c(C(F)(F)F)c2C)c(F)cc1Cl (stereo not drawn)
Reply: 65

Task item: # query: inhibition at 280.212 g/ha of entry CCC(C)OC(=O)c1cc(-c2nn(C)c(C(F)(F)F)c2C)c(F)cc1Cl (stereo not drawn)
Reply: 100

Task item: # query: inhibition at 280.212 g/ha of entry Cc1c(-c2cc(CSCC(C)C)c(Cl)cc2F)nn(C)c1C(F)(F)F
Reply: 0

Task item: # query: inhibition at 280.212 g/ha of entry Cc1c(-c2cc(C(N)=O)c(Cl)cc2F)nn(C)c1C(F)(F)F
Reply: 35

---

tested on: Giant Foxtail; assay: post-emergence herbicide test; format: in vivo; settings: Setaria faberi, post-emergence, 0.25 lb/A; read-out: % plant inhibition
Below is a list of entries, each paired with its recorded inhibition at 280.212 g/ha value.
Give the quantity in %, number only.

Consider the worked cases shown below.
{"columns": ["compound", "targetDesc", "endpointLabel", "numericReadout"],
 "data": [
  ["Cc1c(-c2cc(CSC(C)C)c(Cl)cc2F)nn(C)c1C(F)(F)F", "Giant Foxtail", "inhibition at 280.212 g/ha", 65],
  ["Cc1c(-c2cc(C(=O)O)c(Cl)cc2F)nn(C)c1C(F)(F)F", "Giant Foxtail", "inhibition at 280.212 g/ha", 0],
  ["COCC(C)OC(=O)c1cc(-c2nn(C)c(C(F)(F)F)c2C)c(F)cc1Cl (stereo not drawn)", "Giant Foxtail", "inhibition at 280.212 g/ha", 100],
  ["Cc1c(-c2cc(C(=O)OCC3CNCCO3)c(Cl)cc2F)nn(C)c1C(F)(F)F (stereo not drawn)", "Giant Foxtail", "inhibition at 280.212 g/ha", 5],
  ["CCC(C)OC(=O)c1cc(-c2nn(C)c(C(F)(F)F)c2C)c(F)cc1Cl (stereo not drawn)", "Giant Foxtail", "inhibition at 280.212 g/ha", 95],
  ["Cc1c(-c2ccc(Cl)cc2)nn(C)c1C(F)(F)F", "Giant Foxtail", "inhibition at 280.212 g/ha", 0]
]}

Task item: # query: inhibition at 280.212 g/ha of entry CC(=O)CCCOC(=O)c1cc(-c2nn(C)c(C(F)(F)F)c2C)c(F)cc1Cl
Reply: 75

Task item: # query: inhibition at 280.212 g/ha of entry COCc1cc(-c2nn(C)c(C(F)(F)F)c2C)c(F)cc1Cl
Reply: 0

---

system: Yellow Nutsedge; experiment: post-emergence herbicide test; type: in vivo; conditions: Cyperus, 0.1785 lb/A, read-out: % plant inhibition
Below is a list of entries, each paired with its recorded inhibition at 200.072 g/ha value.
Give the quantity in %, number only.

{"columns": ["molecule", "endpointLabel", "numericReadout"],
 "data": [
  ["Cc1c(-c2cc(OCC(=O)OC(C)C)c(Cl)cc2F)nn(C)c1C(F)(F)F [Compound 38]", "inhibition at 200.072 g/ha", 25],
  ["C#CCOc1cc(-c2nn(C)c(C(F)(F)F)c2C)c(F)cc1Cl [Compound 39]", "inhibition at 200.072 g/ha", 10],
  ["Cc1c(-c2cc(F)c([N+](=O)[O-])cc2F)nn(C)c1C(F)(F)F [Compound 35]", "inhibition at 200.072 g/ha", 0],
  ["Cn1nc(-c2cc(F)ccc2F)c(C=O)c1C(F)(F)F [Compound 34]", "inhibition at 200.072 g/ha", 0],
  ["Cc1c(-c2cc(F)ccc2F)nn(C)c1C(F)(F)F [Compound 1]", "inhibition at 200.072 g/ha", 0]
]}

Task item: Request - read-out inhibition at 200.072 g/ha | tested on Yellow Nutsedge | molecule COc1cc(-c2nn(C)c(C(F)(F)F)c2C)c(F)cc1Cl [Compound 37]
Reply: 15

Task item: Request - read-out inhibition at 200.072 g/ha | tested on Yellow Nutsedge | molecule COc1cc(-c2nn(C)c(C(F)(F)F)c2C)c(F)cc1[N+](=O)[O-] [Compound 36]
Reply: 0

Task item: Request - read-out inhibition at 200.072 g/ha | tested on Yellow Nutsedge | molecule Cc1c(-c2cc(O)c(Cl)cc2F)nn(C)c1C(F)(F)F [Compound 40]
Reply: 55

---

test system: Cocklebur; assay: post-emergence herbicide test; type: in vivo; details: Xanthium strumarium, post-emergence, 4.5 lb/A; read-out: % plant inhibition
Below is a list of entries, each paired with its recorded inhibition at 5043.82 g/ha value.
Give the quantity in %, number only.

Consider the worked cases shown below.
{"columns": ["smilesString", "unitText", "inhibition at 5043.82 g/ha"],
 "data": [
  ["Cc1c(-c2cc(F)c([N+](=O)[O-])cc2F)nn(C)c1C(F)(F)F", "%", 90],
  ["Cc1c(-c2cc(F)ccc2F)nn(C)c1C(F)(F)F", "%", 0],
  ["Cc1c(-c2cc(O)c(Cl)cc2F)nn(C)c1C(F)(F)F", "%", 100]
]}

Please find the next compound below.
Task item: # query: inhibition at 5043.82 g/ha of entry Cn1nc(-c2cc(F)ccc2F)c(C=O)c1C(F)(F)F
Reply: 25
